- Tested on: K-562 leukemia
- experimental-details: NCI tumour cell line growth inhibition, 48 h
observable: TGI

Please report the recorded TGI for CCOC(=O)C1(C#N)C(c2ccccc2)CC(O)(c2ccc(OC)cc2)C(C(=O)c2ccc(OC)cc2)C1c1ccccc1 (centres undefined) . > 100 µM

Please report the recorded TGI for COC(=O)C(=Cc1cc(OC)ccc1OC)C(=O)OC . 53.6 µM

Please report the recorded TGI for COc1ccc2c(c1)CCCC(Br)C2=O (centres undefined) . 18.7 µM

Please report the recorded TGI for S=C(Nc1ccccc1)N(/N=C/C=C/c1ccccc1)c1nnc(-c2ccccc2)c(-c2ccccc2)n1 . > 100 µM

Please report the recorded TGI for O=C1C(Cl)N(c2ccc(Cl)cc2)C1c1c[nH]c2ccccc12 (centres undefined) . 73.3 µM

Please report the recorded TGI for CC1=NNC(=O)C2CCC(=O)N12 (centres undefined) . > 100 µM

Please report the recorded TGI for CC(C)(Cl)C(Br)CCC(C)(Cl)C(Br)CBr (centres undefined) . > 100 µM

Please report the recorded TGI for OCCCCCCCCCCCOc1ccc(C2OCC3(CO2)COC(c2ccc(OCCCCCCCCCCCO)cc2)OC3)cc1 (centres undefined) . > 50 µM

Please report the recorded TGI for CNC(C#N)c1ccc(OC)cc1 (centres undefined) . > 100 µM

Please report the recorded TGI for N#Cc1nc(Nc2cccc3ccccc23)sc1N . > 100 µM

Please report the recorded TGI for COC(=O)c1ccc(C(=O)NC(Cc2ccc(Oc3cc(CC(NC(=O)c4ccccc4C(=O)OC)C(=O)OC)ccc3OC)cc2)C(=O)OC)cc1 (centres undefined) . > 100 µM

Please report the recorded TGI for COC(=O)C1=C(O)c2cc(OC)c(OC)cc2C(c2ccc(OC)c(OC)c2)C1 (centres undefined) . > 100 µM

Please report the recorded TGI for O=c1[nH]c(=O)n(C2OC(CO)C(O)C2O)cc1NN=NCc1ccccc1 (centres undefined) . > 100 µM

Please report the recorded TGI for COc1cc(N(CCC#N)CCC#N)ccc1/C(N=Nc1ccc([N+](=O)[O-])cc1)=N/NC(=O)c1cc(Br)ccc1O . > 150 µg/mL

Please report the recorded TGI for OC1(C(F)(F)F)OCCN=C1C(F)(F)F (centres undefined) . > 100 µM

Please report the recorded TGI for N=C1/C(=C/c2ccc(F)cc2)C(=O)N=C2SC=NN12 . > 100 µM

Please report the recorded TGI for COc1cc(C(=O)n2c3ccc(Br)cc3c3nc4ccccc4nc32)cc(OC)c1OC . > 100 µM

Please report the recorded TGI for Cc1cc(C)nc(NC(=O)c2ccc(Br)s2)c1 . > 100 µM

Please report the recorded TGI for COc1cc(/C=C2\C[C@H]3[C@@H]4CCc5cc(O)ccc5[C@H]4CC[C@]3(C)C2=O)cc(OC)c1OC . 24.8 µM

Please report the recorded TGI for CC(=O)c1cccc(NC(=O)C(=O)NNc2n[nH]c(=S)n2N)c1 . 27.6 µM

Please report the recorded TGI for FC(F)(F)c1ccc(N=C/C=C(/Nc2ccc(C(F)(F)F)cc2)c2ccc(Cl)cc2)cc1 . > 100 µM

Please report the recorded TGI for CCCCCCCCCC1(N=[N+]=[N-])C(=O)c2ccccc2N(C)C1=O (centres undefined) . > 100 µM

Please report the recorded TGI for CCCC(=O)n1[nH]c(=O)n(-c2ccc(Cl)cc2)c1=O . > 100 µM

Please report the recorded TGI for CN(C)/C=N/c1nc2c(ncn2C2OC(CO)C(O)C2O)c(=O)[nH]1 (centres undefined) . > 100 µM

Please report the recorded TGI for C=C1C(=O)OC2CCN3CC=C(COC(=O)C(C)(O)C4(CO4)C1C)C23 (centres undefined) . > 100 µM

Please report the recorded TGI for CC1(C)CC(=O)c2[nH]c3ccccc3c2CC(=O)NCCc2cn1cn2 . > 100 µM

Please report the recorded TGI for CC(C)C(=O)[C@@]1(C)SC[C@H]2CCN=C21 . > 100 µM

Please report the recorded TGI for CC(CCC=O)CCOCc1ccccc1 (centres undefined) . > 100 µM

Please report the recorded TGI for O=C1C2CC=CCC2C(=O)N1n1c(Cc2ccc(Cl)cc2)n[nH]c1=O (centres undefined) . > 100 µM

Please report the recorded TGI for COc1ccc(N2C(=O)C(=O)N(c3ccccc3[N+](=O)[O-])C2=S)cc1 . > 100 µM

Please report the recorded TGI for CCOc1ccccc1C=C1c2ccccc2C(=O)c2ccccc21 . > 100 µM

Please report the recorded TGI for Cc1nn(-c2ccccc2)c2nc(N3CCOCC3)nnc12 . > 100 µM

Please report the recorded TGI for COc1ccc(/C=C(/C(=O)N2CCN(c3ccccc3)CC2)c2cc(OC)c(OC)c(OC)c2)cc1O . > 100 µM

Please report the recorded TGI for c1nc(OCC2CCCCC2)c2[nH]cnc2n1 . > 100 µM

Please report the recorded TGI for C=C(CNCc1ccccc1)c1ccc(C(=O)Nc2ccccc2N)cc1 . > 100 µM

Please report the recorded TGI for Cc1cc(I)cc(CN(C)CCCN2CCCCCCC2)c1O . 23.8 µM

Please report the recorded TGI for Cc1cc(C)n2nc3nc(N)c(C#N)c(-c4ccccc4)c3c2n1 . > 100 µM

Please report the recorded TGI for COc1cccc(/C=C/c2cc(OC)c(OC)c(OC)c2)c1 . > 100 µM

Please report the recorded TGI for O=C1NC(=O)C(c2c[nH]c3ccccc23)=C1c1cnc[nH]1 . > 100 µM

Please report the recorded TGI for N#CC(=C1C=CC(=NO)C=C1)c1ccccc1 . 13.2 µM

Please report the recorded TGI for NC1CC(=O)c2c(Br)csc21 (centres undefined) . > 100 µM

Please report the recorded TGI for CN=c1nc2sc3c(c2c(NC(=S)NC)s1)CCCC3 . > 100 µM

Please report the recorded TGI for Nc1ncnc2c1ccn2C/C=C\CO . > 100 µM

Please report the recorded TGI for O=S1(=O)C[C@H](O)[C@H](O)CS1 . > 100 µM
